Target: Microphthalmia-associated transcription factor (Homo sapiens) (UniProt O75030)
Sequence (O75030 whole entry, looked up): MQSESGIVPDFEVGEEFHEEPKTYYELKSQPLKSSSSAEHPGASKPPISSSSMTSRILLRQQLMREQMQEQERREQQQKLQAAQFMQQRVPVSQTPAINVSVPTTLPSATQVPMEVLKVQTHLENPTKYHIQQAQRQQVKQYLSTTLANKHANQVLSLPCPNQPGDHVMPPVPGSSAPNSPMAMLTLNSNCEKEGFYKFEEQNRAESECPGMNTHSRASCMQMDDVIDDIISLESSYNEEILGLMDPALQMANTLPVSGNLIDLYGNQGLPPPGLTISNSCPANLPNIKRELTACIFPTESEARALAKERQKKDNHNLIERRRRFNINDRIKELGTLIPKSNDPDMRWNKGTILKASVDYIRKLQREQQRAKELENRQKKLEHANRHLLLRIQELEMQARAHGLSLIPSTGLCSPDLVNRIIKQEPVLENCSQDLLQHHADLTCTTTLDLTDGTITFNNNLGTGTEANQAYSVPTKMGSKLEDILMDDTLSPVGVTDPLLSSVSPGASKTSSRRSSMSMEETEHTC
Assay: MITF inhibitors by FRET titration, dose response, biochemical, high throughput (AID 1259375);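 further: FRET between CFP-tagged and YFP-tagged MITF protein partners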
Conditions: FRET biochemical assay, MITF inhibition
Active and inactive are the calls of the source. How the calls were made is not given here.
readoutKind: IC50

> print(dat)
                                   compound  readoutkind          readoutvalue
1         O=C(NCc1cccnc1)c1cccc(-c2cccs2)c1         IC50  > 6.64 µM (inactive)
2  COc1ccc2c(c1)CC(C(=O)Nc1ccc(-c3cn[nH]c3)cc1OCC(N)=O)CO2 (stereo unspecified)         IC50  > 6.48 µM (inactive)
3  CC1=C/C(=N\N=C2\NC(=O)C(CC(=O)Nc3ccc(C(=O)O)cc3)S2)CC(C)(C)C1 (stereo unspecified)         IC50  > 6.48 µM (inactive)
4  CC(=O)NCC(c1cccs1)S(=O)(=O)c1ccc(C)cc1 (stereo unspecified)         IC50  > 6.41 µM (inactive)
5         O=C(O)c1cccc2c1C(=O)N(c1ccccc1)C2         IC50  > 6.31 µM (inactive)

Now turn to the next compound.
Tested on Microphthalmia-associated transcription factor (Homo sapiens) (UniProt O75030), the item CCCCNCCOc1ccccc1OCC showed IC50 equal to > 6.48 µM (inactive)

* * *

Molecular target: Microphthalmia-associated transcription factor (Homo sapiens) (UniProt O75030)
Assay: MITF inhibitors by FRET titration, dose response, biochemical, high throughput (AID 1259375);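 further: FRET between CFP-tagged and YFP-tagged MITF protein partners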
Conditions: FRET biochemical assay, MITF inhibition
Activity calls are given as the source filed them. How the calls were made is not given here.
Lab note: assign the record to one of active, inactive

> print(dat)
                                   compound  categorylabel
1  COc1ccc(/C=C2\N=C(c3ccc4c(c3)OCO4)OC2=O)cc1Cl       inactive
2  O=C(COc1ccccc1C(=O)OC1CCCC1=O)Nc1cccc(C(F)(F)F)c1 (configuration not stated)       inactive
3  CN(C)CCNc1nc(C2COc3ccccc3O2)nc2ccc(-c3cn[nH]c3)cc12 (configuration not stated)       inactive
4  O=C(OCN1C(=O)c2ccccc2C1=O)c1cc2c(s1)CCC2       inactive
5  CC(C)[C@H]1NC(=O)[C@H]2CN(C(=O)NCc3ccccc3)CCN2C1=O       inactive
6  O=C(/C=C/c1ccc(-c2cccc(C(F)(F)F)c2)o1)c1ccco1       inactive

Tell me the assay call for CN=C1SC(CC(=O)Nc2cccc(C(=O)O)c2)C(=O)N1C (configuration not stated) please.
inactive

Tell me the assay call for C=CCc1cc(Cl)ccc1OCCOCCNCCOC please.
inactive

* * *

Target: Microphthalmia-associated transcription factor (Homo sapiens) (UniProt O75030)
Assay: MITF inhibitors by FRET titration, dose response, biochemical, high throughput (AID 1259375);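 further: FRET between CFP-tagged and YFP-tagged MITF protein partners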
Settings: FRET biochemical assay, MITF inhibition
Activity calls are given as the source filed them. The rule behind the calls is not given here.
readoutKind: IC50

// solved cases for IC50 follow
> print(dat)
                                   compound          readoutvalue
1  CC(=O)Nc1ccc(N2C(=O)c3ccccc3C2(O)Cc2ccccc2)cc1 (stereo unspecified)  > 6.48 µM (inactive)
2  COc1ccc2c(c1)C1NC(=S)N(c3cccc(C)c3)C(C)(O2)C1C(=O)Nc1ccc(C)cc1C (stereo unspecified)  > 5.71 µM (inactive)
3               O=C(O)CCCNC(=O)/C=C/c1ccco1  > 6.48 µM (inactive)

Tested on Microphthalmia-associated transcription factor (Homo sapiens) (UniProt O75030), the item COCCNC(=O)COC(=O)c1cc(-c2ccco2)nc2ccccc12 showed IC50 equal to > 6.59 µM (inactive)

Tested on Microphthalmia-associated transcription factor (Homo sapiens) (UniProt O75030), the item Cc1cccc(CN2CCN(S(=O)(=O)c3ccccc3[N+](=O)[O-])CC2)c1 showed IC50 equal to > 5.08 µM (inactive)

Tested on Microphthalmia-associated transcription factor (Homo sapiens) (UniProt O75030), the item CCOC(=O)C1CCCN(Cc2cccc(Br)c2)C1 (stereo unspecified) showed IC50 equal to > 6.48 µM (inactive)

Tested on Microphthalmia-associated transcription factor (Homo sapiens) (UniProt O75030), the item O=C(Nc1ccc(-c2cn[nH]c2)c(C(F)(F)F)c1)C1COc2ccccc2O1 (stereo unspecified) showed IC50 equal to > 6.48 µM (inactive)

Tested on Microphthalmia-associated transcription factor (Homo sapiens) (UniProt O75030), the item O=C1N[C@H](Cc2ccccc2)C(=O)N2CCN(C(=O)NC3CCCCC3)C[C@H]12 showed IC50 equal to > 6.48 µM (inactive)

Tested on Microphthalmia-associated transcription factor (Homo sapiens) (UniProt O75030), the item COc1cccc(COC(=O)Nc2ccc(-c3cn[nH]c3)cc2N(C)CCN(C)C)c1 showed IC50 equal to > 6.48 µM (inactive)

Tested on Microphthalmia-associated transcription factor (Homo sapiens) (UniProt O75030), the item O=C(NC1CCCCC1)N1CCN2C(=O)[C@H]3CCCN3C(=O)[C@H]2C1 showed IC50 equal to > 6.48 µM (inactive)

Tested on Microphthalmia-associated transcription factor (Homo sapiens) (UniProt O75030), the item O=C(COC(=O)/C=C/c1ccco1)COC(=O)/C=C/c1ccco1 showed IC50 equal to > 7.07 µM (inactive)

Where these numbers come from: PubChem BioAssay AID1259375
